molecular target: chicken IgY (chicken); test: BLI; Octet, SAX (streptavidin) biosensors; recombinant Fabs against IgY; KD from a kinetic 1:1 model, global fit over multiple concentrations (partial fits averaged for 3 low-affinity Fabs)
value-kind: log10 koff (log10 of the value in s⁻¹)
Base-10 log of koff, unit s⁻¹.

-- ask Entry clone 2.1 Fab TA_26 (Fab, V domains shown) VH: EVQLQESGPSLVKPSQTLSLTCSVTGDSITSGYWNWIRKFPGNKLEYMGYISYSGSTYYNPSLKSRISITRDTSKNQYYLQLNSVTTEDTATYYCARDFDVWGAGTTVTVSS VL: DIVMTQSQKFMSTSVGDRVSVTCKASQNVGTNVAWYQQKPGQSPKALIYSASYRYSGVPDRFTGSGSGTDFTLTISNVQSEDLAEYFCQQYDSYPLTFGSGTKLEIK : reported log10 koff = ?
-- reply -2.10

-- ask Entry clone 2.1 Fab TA_16 (Fab, V domains shown) VH: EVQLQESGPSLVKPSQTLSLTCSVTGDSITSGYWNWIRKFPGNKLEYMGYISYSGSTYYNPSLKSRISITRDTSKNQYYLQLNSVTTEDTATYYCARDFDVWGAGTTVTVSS VL: DIVMTQSQKFMSTSVGDRVSVTCKASQNVGTNVGWYQQKPGQSPKSLIFSASYRYSGVPDRFTGSGSGTDFTLTISNVQSEDLAEYFCQQYNSYPLTFGSGTKLEIK : reported log10 koff = ?
-- reply -3.48

-- ask Entry clone 2.1 Fab TA_1 (Fab, V domains shown) VH: EVQLQESGPSLVKPSQTLSLTCSVTGDSITSGYWNWIRKFPGNRLEYMGYISFSGSTYYNPSLKSRISITRDTSKNQYYLQLNSVTTEDTATYYCARDFDVWGAGTTVTVSS VL: DIVMTQSQKFMSTSVGDRVSVTCKASQNVGTNVGWYQQKPGQSPKALIYSASYRYSGVPDRFTGSGSGTDFTLTISNVQSEDLAEYFCQQYNSYPLTFGSGTKLEIK : reported log10 koff = ?
-- reply -3.44

-- ask Entry clone 2.1 Fab TA_22 (Fab, V domains shown) VH: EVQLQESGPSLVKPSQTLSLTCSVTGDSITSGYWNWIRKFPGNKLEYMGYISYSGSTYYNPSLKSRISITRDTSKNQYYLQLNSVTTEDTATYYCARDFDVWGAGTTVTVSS VL: DIVMTQSQKFMSTSVGDRVSVTCKASQNVGTNVAWYQQKPGQSPKALIYSASYRYSGVPDRFTGSGSGTDFTLTISNVQSEDLAEYFCQQYSSYPLTFGSGTKLEIK : reported log10 koff = ?
-- reply -2.91

-- ask Entry clone 2.1 Fab TA_28 (Fab, V domains shown) VH: EVQLQESGPSLVKPSQTLSLTCSVTGDSITSGYWNWIRKFPGNKLEYMGYISYSGGTYYNPSLKSRISITRDTSKNQYYLQLNSVTTEDTATYYCARDFDVWGAGTTVTVSS VL: DIVMTQSQKFMSTSVGDRVSVTCKASQNVGTNVAWYQQKPGQSPKALIYSASYRYSGVPDRFTGSGSGTDFTLTISNVQSEDLAEYFCQQYNSYPLTFGSGTKLEIK : reported log10 koff = ?
-- reply -2.51

-- ask Entry clone 2.1 Fab L_11 (affinity ladder) (Fab, V domains shown) VH: EVQLQESGPSLVKPSQTLSLTCSVTGDSITSGYWNWIRKFPGNKLEYMGYISYSGSTYYNPSLKSRISITRDTSTNQYYLQLNSVTTEDTATYFCARDFDVWGAGTTVTVSS VL: DIVMTQSQKFMSTSVGDRVSVTCKASQNVGTNVGWYQQKPGQSPKALIYSASYRYSGVPDRFTGSGSGTDFTLTISNVQSEDLAEYFCQQYNSYPLTFGSGTKLEIK : reported log10 koff = ?
-- reply -3.96

-- ask Entry clone 2.1 Fab TA_4 (Fab, V domains shown) VH: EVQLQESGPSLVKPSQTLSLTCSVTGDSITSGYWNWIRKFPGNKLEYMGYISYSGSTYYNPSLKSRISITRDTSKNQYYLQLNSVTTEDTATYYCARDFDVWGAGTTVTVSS VL: DIVMTQSQKFMSTSVGDRVSVTCKASQNVGTNVVWYQQKPGQSPKALIYSASYRYSGVPDRFTGSGSGTDFTLTISNVQSEDLAEYFCQQYDSYPLTFGSGTKLEIK : reported log10 koff = ?
-- reply -2.10

-- ask Entry clone 2.1 Fab CB_05 (clonal burst) (Fab, V domains shown) VH: EVQLQESGPSLVKPSQTLSLTCSVTGDSITSGYWNWIRKFPGNKLEYMGYISYSGSTYYNPSLKSRISITRDTSKNQYYLQLNSVTTEDTATYYCGRDFDVWGAGTTVTVSS VL: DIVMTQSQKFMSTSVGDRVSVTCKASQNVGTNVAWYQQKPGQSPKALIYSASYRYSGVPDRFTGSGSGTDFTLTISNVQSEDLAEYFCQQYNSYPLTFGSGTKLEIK : reported log10 koff = ?
-- reply -2.83

-- ask Entry clone 2.1 Fab TA_5 (Fab, V domains shown) VH: EVQLQESGPSLVKPSQTLSLTCSVTGASITSGYWNWIRKFPGNKLEYMGYISYSGSTYYNPSLKSRISITRDTSKNQYYLQLNSVTTEDTATYYCARDFDVWGAGTTVTVSS VL: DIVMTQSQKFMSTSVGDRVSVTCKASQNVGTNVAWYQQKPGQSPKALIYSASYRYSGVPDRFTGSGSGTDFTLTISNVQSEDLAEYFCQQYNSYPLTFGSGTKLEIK : reported log10 koff = ?
-- reply -3.07

-- ask Entry clone 2.1 Fab CB_10 (clonal burst) (Fab, V domains shown) VH: EVQLQESGPSLVKPSQTLSLTCSVTGDSITSGYWNWIRKFPGNKLEYMGYISYSGSTYYNPSLKSRISITRDTSKNQYYLQLNSVTTEDTATYYCGRDFDVWGAGTTVTVSS VL: DIVMTQSQKFMSTSVGDRVSVTCKASQNVGTNVGWYQQKPGQSPKALIYSASYRYSGVPDRFTGSGSGTDFTLTISNVQSEDLAEYFCQQYNRYPLTFGSGTKLEIK : reported log10 koff = ?
-- reply -4.43

These data points were gathered from paper PMC13360575.
